# system-tested: TBK1 (Homo sapiens (Human), UniProt Q9UHD2)
# Sequence (Q9UHD2 whole entry): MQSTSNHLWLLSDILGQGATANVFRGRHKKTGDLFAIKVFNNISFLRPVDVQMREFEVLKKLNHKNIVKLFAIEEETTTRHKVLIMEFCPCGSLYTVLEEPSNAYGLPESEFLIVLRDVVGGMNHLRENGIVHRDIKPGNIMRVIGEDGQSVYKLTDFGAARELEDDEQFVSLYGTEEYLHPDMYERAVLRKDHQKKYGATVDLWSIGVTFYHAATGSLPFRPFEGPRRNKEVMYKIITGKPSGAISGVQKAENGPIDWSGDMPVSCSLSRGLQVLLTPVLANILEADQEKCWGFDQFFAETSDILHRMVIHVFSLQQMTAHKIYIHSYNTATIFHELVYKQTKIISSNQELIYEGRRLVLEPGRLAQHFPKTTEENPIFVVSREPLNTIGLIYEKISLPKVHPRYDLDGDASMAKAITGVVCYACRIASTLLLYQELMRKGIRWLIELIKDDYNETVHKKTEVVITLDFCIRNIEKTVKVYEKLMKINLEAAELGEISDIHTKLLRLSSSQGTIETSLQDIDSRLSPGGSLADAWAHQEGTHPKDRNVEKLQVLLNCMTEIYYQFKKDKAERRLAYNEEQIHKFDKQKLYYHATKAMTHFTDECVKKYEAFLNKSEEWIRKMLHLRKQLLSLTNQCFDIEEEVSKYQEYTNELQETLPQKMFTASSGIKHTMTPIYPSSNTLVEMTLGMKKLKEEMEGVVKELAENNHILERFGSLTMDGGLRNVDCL
# experiment-notes: Lanthascreen TR-FRET kinase inhibition assay, TBK1
# Type: biochemical
# condition-label: 20 μM ATP (apparent Km), 8 nM kinase, 2.5 h
Recorded IC50, one value per entry.

>>> df
                                   compound     result
0  Cn1cc(Nc2nccc(-c3cnc(N4CCC[C@@H]4C(=O)O)c(C#N)c3)n2)cn1 [DMX-40]  < 1000 nM

Looking up N#Cc1cc(-c2ccnc(Nc3ccc4c(c3)CNC4)n2)cnc1N1CC[C@H](F)C1 [DMX-126] , I found its IC50 recorded as < 15 nM

Entry under test: CC(C)(N)C(=O)Nc1ccc(Nc2nccc(-c3cnc(N4CC[C@H](F)C4)c(C#N)c3)n2)cn1 [DMX-62] . Its IC50 was < 100 nM

For reference, reported IC50 for CN1CCC(NC(=O)c2cccc(Nc3nccc(-c4cnc(N5CC[C@H](F)C5)c(C#N)c4)n3)c2)CC1 [DMX-1] stands at < 30 nM

So for CN(C(=O)CN1CCOCC1)c1ccc(Nc2nccc(-c3cnc(N4CC[C@H](O)C4)c(C#N)c3)n2)cn1 [DMX-75] , the logged IC50 turned out to be < 1000 nM

Looking up COCCNc1cc(Nc2ncc(F)c(-c3cnc(N4CCCOCC4)c(C#N)c3)n2)ccn1 [DMX-95] , I see its IC50 listed as < 100 nM

Documented IC50 of CN(CCO)Cc1ccc(Nc2nccc(-c3cnc(N4CC[C@H](F)C4)c(C#N)c3)n2)cn1 [DMX-104] : < 100 nM

Briefly, IC50 measured for CC(C)C(Nc1ncc(-c2ccnc(Nc3ccc(CN4CCOCC4)nc3)n2)cc1C#N)C(N)=O (centres unmarked) [DMX-136] : < 15 nM
